Origin of measurements: PubChem BioAssay AID1240

tested.on: Bcl-2-like protein 10 (Homo sapiens)
test.method.notes: TR3 peptide-Bcl-B binding displacers, biochemical primary FP assay, phenotype converters (AID 1240);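 further: 0% = Bcl-B with tracer peptide and DMSO and 100% = tracer peptide lacking Bcl-B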
measurement.setup: GST-Bcl-B / FITC-TR3 peptide fluorescence polarization; stronger effect = higher value; compound at 3.75 mg/L
Screen size: about 50,000 compounds; about 800 (1.6%) showed an effect of 50% or more. The full list was thinned out, with strong results kept by preference.
measured.quantity: displacement (%)
State the answer as a number, implicitly in %.

Reported displacement of "O=C1c2ccccc2C(=O)N1CCc1nc2ccccc2c(=O)n1-c1ccc(Br)cn1" : -10.3

O=C(O)CCC(=O)N1N=C(c2cccs2)CC1c1ccccc1Cl (stereo unspecified) has a reported displacement of -8.4

Per the record, "CC(C)(C)CC(C)(C)NC(=O)c1ccc2nccnc2c1" has displacement of 14.3

// displacement value for "N/C(=N/N=C/c1ccc2c(c1)OCO2)c1ccccn1" : -7.7

Lab note: "CCOc1cc(/C=C2\SC(=S)N(CCS(=O)(=O)O)C2=O)ccc1O" gave displacement of -60.3

Given item "CCOc1cc(/C=C2/SC(=S)N(CC)C2=O)cc(Br)c1OCCOc1cccc(OC)c1" , the value recorded as its displacement is 92.3

Form: compound = "CCOC(=O)COc1ccc(/C=c2/sc3nc4cc(C)c(C)cc4n3c2=O)cc1OC" ; displacement = -4.4

So, "CCOc1ccccc1C(=O)NCCc1nc2ccccc2[nH]1" ? Its displacement was 4.7

The compound "Cc1c(C(=O)Nc2ccc(Cl)cn2)oc2ccccc12" showed displacement equal to 15.4

Form: compound = CC1=C(C(=O)Nc2ccc(C)cc2)C(c2ccc(F)cc2)NC(=S)N1 (stereo unspecified) ; displacement = -4.5

Input "Cc1ccc(-c2csc(/C(C#N)=C\c3ccc(C)s3)n2)cc1" . Output displacement: -2.9

* * *

tested.on: Bcl-2-like protein 10 (Homo sapiens) (UniProt Q9HD36)
Sequence (Q9HD36 whole entry, looked up): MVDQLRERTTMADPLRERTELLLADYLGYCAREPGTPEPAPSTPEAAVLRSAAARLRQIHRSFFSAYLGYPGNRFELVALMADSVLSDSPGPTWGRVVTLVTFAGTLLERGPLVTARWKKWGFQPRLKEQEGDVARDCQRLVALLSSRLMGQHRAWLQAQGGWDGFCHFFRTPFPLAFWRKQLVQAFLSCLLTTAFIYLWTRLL
test.method.notes: TR3 peptide-Bcl-B binding displacers, biochemical primary FP assay, phenotype converters (AID 1240);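 further: 0% = Bcl-B with tracer peptide and DMSO and 100% = tracer peptide lacking Bcl-B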
measurement.setup: GST-Bcl-B / FITC-TR3 peptide fluorescence polarization; stronger effect = higher value; compound at 3.75 mg/L
The campaign covered roughly 50,000 compounds. About 800 (1.6%) showed an effect of 50% or more. This excerpt belongs to a sample that is enriched for strong results.
measured.quantity: displacement (%)
Kindly provide the numeric value in % only, without the unit symbol.

Given item "Cc1cccn2c(=O)c(C=O)c(N3CCCCC3)nc12" , the value recorded as its displacement is 3.9

Form: compound = "COc1c(Cl)ccc(Cl)c1C(=O)Nc1ccc(I)cc1" ; displacement = -9.5

Summary for this compound, "CC(=O)NC1=NC(=O)/C(=C\c2ccc(-c3ccc(Cl)c(C(=O)O)c3)o2)S1" : displacement is -115

// "COc1ccc(-c2cc(=O)oc3cc(OC(C)=O)ccc23)cc1" : displacement value = -5.1

Form: compound = O=C1CCCCC1Oc1ccc2c(-c3ccccc3)cc(=O)oc2c1 (stereo not drawn) ; displacement = -9.6

Record summary for "COc1c(Cl)cc(Cl)cc1/C=C1\SC(NC(C)=O)=NC1=O" : reported displacement = 74.7

Data point: "CS(=O)(=O)N(CC(=O)Nc1cccc(Br)c1)c1ccc(Oc2ccccc2)cc1" ; displacement = 1.9

"COc1ccc(/C=C2/SC(NC(C)=O)=NC2=O)c(OC)c1" has a reported displacement of 133

The compound listed as "COc1cc(/C=C(\C#N)c2nc3ccc(C)cc3[nH]2)cc(OC)c1O" shows displacement equal to -65.6

Lab book: displacement of "COc1ccc(OC)c(/C=C2/SC(NC(C)=O)=NC2=O)c1" noted as 156

Item: "Cc1c(NC(=O)CSc2nnc(-c3cccc(F)c3)n2-c2ccccc2)c(=O)n(-c2ccccc2)n1C" | displacement: 13.4

Documented displacement of "COc1ccc(/C=C2\SC(N3CCCC3)=NC2=O)c(OC)c1" : -18.5

In plain terms, "CSc1ccc(-c2ncnn2-c2cccc(Cl)c2)cc1" has a documented displacement of -4.7

Value of measured displacement for the entry CC(C)(C)OC(=O)C1C(=O)CC(C)(O)C(C(=O)OC(C)(C)C)C1c1ccccc1 (stereo not drawn) : -1.3

Please fill in: displacement reported for "CCCCc1c(C)nc2ccc(C(=O)O)cc2c1Cl" = 1

Lab note: measured displacement of "CC(C)OC(=O)c1ccc(NC(=O)c2cccc(Br)c2)cc1" was 69.2

Given item "CC(C)OC(=O)c1ccc(NC(=O)c2cncc(Br)c2)cc1" , the value recorded as its displacement is 12.3

The compound listed as "COc1ccc(/C=C2/SC(N)=NC2=O)c(OC)c1" shows displacement equal to -3.2

Record "COc1cc(OC)c(/C=C2/SC(NC(C)=O)=NC2=O)cc1Br" , field displacement: 138

Note to self: displacement recorded for "COc1ccccc1NC(=O)CSc1nc2ccc(N3C(=O)c4ccccc4C3=O)cc2s1" was 84.2

Record "O=C(Nc1ccc(NC(=O)c2cccc(Br)c2)cc1)c1ccccc1" , field displacement: 0

So, "COc1cc(/C=C2\SC(NC(C)=O)=NC2=O)cc2sc(=O)oc12" ? Its displacement was 24.7

Item: "Cc1cccn2c(=O)c(C=O)c(N3CCC(C)CC3)nc12" | displacement: 17
